# growth values compiled below
System: NCI-H322M lung
protocol_summary: NCI-60 one-dose screen, 48 h (100 = growth as untreated, 0 = no growth, -100 = all killed)
condition_description: 10 µM unless noted
Compounds without any hit were thinned out: in the full panel of roughly 83,000, 20% have a hit.
Number only, in %; omit the unit.

compound	unit_label	growth
CCCCn1c(C(=O)c2c[nH]c3ccccc23)n[nH]c1=S	%	96.7
COc1ccccc1/C=C1\COc2ccc(O)cc2C1=O	%	104
CN(Cc1ccccc1)c1nc(Cl)c(C2CC(c3ccc(F)cc3)=NN2C=O)s1 (stereo not given)	%	93.1
C/C=C(/C)C(=O)O[C@@H]1CC(C)(C)CC2C34OC(=O)[C@@]21CC[C@@]3(C)[C@]1(C)CCC2C(C)(C)C(=O)CC[C@]2(C)C1C[C@@H]4Cl (stereo not given in full)	%	98.2
CC(=O)N1N=C(c2ccc(Nc3nc(Nc4ccc(F)cc4)nc(Nc4ccc(F)cc4)n3)cc2)CC1c1ccccc1 (stereo not given)	%	92.5

With those in mind, consider the next compound.
Record summary for `CCOC(=O)c1cnn(-c2ccc(S(N)(=O)=O)cc2)c1N` : reported growth = 99.8

Where these numbers come from: PubChem BioAssay (NCI)
